Cited source for all entries: paper PMC9033776

MEASURED TARGET: BRD3_(bromo2) domain (amino acids 306–416) (UniProt Q15059 306-416)
Sequence (Q15059 306-416): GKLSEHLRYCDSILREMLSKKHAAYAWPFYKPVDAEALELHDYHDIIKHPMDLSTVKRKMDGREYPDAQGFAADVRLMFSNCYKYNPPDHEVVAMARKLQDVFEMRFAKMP
PROCEDURE DETAILS: ITC
Where no end group is shown, it is not given here.
ATTRIBUTE MEASURED: Kd (µM)
Numbers only, in µM.

Ask: Write down Kd measured for item AGGK(Ac)AGK(Ac)DSGK(Ac)AKTK [tri-acetylated H2A.Z (1–15) K4acK7acK11ac peptide]
Reply: 1800
